Source of measurements: patent US10590113B2

system.tested: human APJ receptor (Homo sapiens, UniProt P35414)
Construct: expressed in transfected cells; host or cells: HEK293
Sequence (P35414 1-380): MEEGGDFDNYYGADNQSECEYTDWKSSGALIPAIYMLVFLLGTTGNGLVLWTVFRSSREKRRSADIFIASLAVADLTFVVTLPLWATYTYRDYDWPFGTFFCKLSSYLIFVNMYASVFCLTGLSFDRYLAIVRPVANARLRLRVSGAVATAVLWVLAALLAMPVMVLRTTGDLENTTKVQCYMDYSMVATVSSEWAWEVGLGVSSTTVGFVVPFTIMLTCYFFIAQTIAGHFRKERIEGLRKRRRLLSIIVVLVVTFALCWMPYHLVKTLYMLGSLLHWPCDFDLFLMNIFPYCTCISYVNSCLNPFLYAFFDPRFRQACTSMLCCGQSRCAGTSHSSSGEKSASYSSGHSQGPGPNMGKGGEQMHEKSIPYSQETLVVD
test.summary: Intracellular cAMP Accumulation Assay (APJ hcAMP, HTRF)
Format: cell-based
particulars: human APJ, intracellular cAMP accumulation; read-out: hAPJ cAMP EC50 Potency range
pEC50: −log10 of the molar value.
Below is a list of entries, each paired with its recorded pEC50 value.

Answered cases to consult:
{"molecule": "COc1cccc(OC)c1-n1c(CC2CC2)nc(=O)c(C(=O)N2CCC(c3cccc(Cl)c3)C2)c1O (racemic) [Example 28]", "pEC50": "8.00 to 11.00"}
{"molecule": "CCCCc1nc(=O)c(C(=O)N2CC[C@H](c3ccccc3)C2)c(O)n1[C@@H](C)c1cccc(C#N)c1 [Example 138]", "pEC50": "7.00 to 8.00"}
{"molecule": "CCCCc1nc(=O)c(C(=O)N2CC[C@H](c3ccccc3)C2)c(O)n1[C@@H](C)C1CC1 [Example 126]", "pEC50": "8.00 to 11.00"}
{"molecule": "COc1cccc(OC)c1-n1c(COC(C)C)nc(=O)c(C(=O)N2CCC(c3cccc(F)c3)C2)c1O (single isomer, unassigned) [Example 97]", "pEC50": "8.00 to 11.00"}
{"molecule": "CC[C@@H](c1cc(F)cc(F)c1)n1c(-c2ccn(C)n2)nc(=O)c(C(=O)N2CCC(c3ncc(F)cc3F)C2)c1O (single isomer, unassigned) [Example 184]", "pEC50": "8.00 to 11.00"}

Could you tell me which pEC50 is on file for CCCCc1nc(=O)c(C(=O)N2Cc3ccccc3C2)c(O)n1-c1c(OC)cccc1OC [Example 66] ?
8.00 to 11.00

Could you tell me which pEC50 is on file for CCCCc1nc(=O)c(C(=O)N2CCC(c3ccccc3F)C2)c(O)n1-c1c(OC)cccc1OC (single isomer, unassigned) [Example 53] ?
8.00 to 11.00

Could you tell me which pEC50 is on file for CCCCc1nc(=O)c(C(=O)N2CC[C@@H](c3ccccc3)C2)c(O)n1[C@H](COC)c1ccccc1 [Example 154] ?
7.00 to 8.00

Could you tell me which pEC50 is on file for COc1cccc(OC)c1-n1c(COC(C)C)nc(=O)c(C(=O)N2CCC(c3ccccc3F)C2)c1O (single isomer, unassigned) [Example 93] ?
8.00 to 11.00

Could you tell me which pEC50 is on file for CCCCc1nc(=O)c(C(=O)N2CCC(c3ccccc3Cl)C2)c(O)n1-c1c(OC)cccc1OC (single isomer, unassigned) [Example 43] ?
8.00 to 11.00

Could you tell me which pEC50 is on file for CCCCc1nc(=O)c(C(=O)N2CCC(c3ccccc3)CC2)c(O)n1-c1c(OC)cccc1OC [Example 72] ?
7.00 to 8.00

Could you tell me which pEC50 is on file for CCCCc1nc(=O)c(C(=O)N2CC[C@@H](c3ccccc3)C2)c(O)n1C(C)c1ccccc1Cl (stereo partly shown) [Example 133] ?
7.00 to 8.00

###

system.tested: human APJ receptor (Homo sapiens)
Construct: expressed in transfected cells; host or cells: HEK293
test.summary: Intracellular cAMP Accumulation Assay (APJ hcAMP, HTRF)
Type: cell-based
particulars: human APJ, intracellular cAMP accumulation; read-out: hAPJ cAMP EC50 Potency range
pEC50: −log10 of the molar value.
Below is a list of entries, each paired with its recorded pEC50 value.

Answered cases to consult:
{"molecule": "CC[C@@H](c1cc(F)cc(F)c1)n1c(-c2ccn(C)n2)nc(=O)c(C(=O)N2CCC(c3ccc(Cl)cn3)C2)c1O (single isomer, unassigned)", "pEC50": "8.00 to 11.00"}
{"molecule": "CCCCc1nc(=O)c(C(=O)N2CCC(c3cccc(F)c3)C2)c(O)n1-c1c(OC)cccc1OC (single isomer, unassigned) [Example 78]", "pEC50": "8.00 to 11.00"}
{"molecule": "CC[C@@H](c1cc(F)cc(F)c1)n1c(-c2ccn(C)n2)nc(=O)c(C(=O)N2CCC(c3ncccc3F)C2)c1O (single isomer, unassigned) [Example 201]", "pEC50": "8.00 to 11.00"}
{"molecule": "CCOCc1nc(=O)c(C(=O)N2CCC(c3ccc(F)cc3)C2)c(O)n1-c1c(OC)cccc1OC (single isomer, unassigned) [Example 57]", "pEC50": "8.00 to 11.00"}
{"molecule": "COc1cccc(OC)c1-n1c(COC(C)C)nc(=O)c(C(=O)N2CCC(c3ccc(C#N)cc3)C2)c1O (single isomer, unassigned) [Example 107]", "pEC50": "8.00 to 11.00"}

Could you tell me which pEC50 is on file for CCCCc1nc(=O)c(C(=O)N2CC[C@H](c3ccccc3)C2)c(O)n1C(C)c1cccnc1 (stereo partly shown) ?
7.00 to 8.00

Could you tell me which pEC50 is on file for `CCCCc1nc(=O)c(C(=O)N2CC[C@H](c3ccccc3)C2)c(O)n1[C@@H](CCC)c1ccccc1` ?
7.00 to 8.00

Could you tell me which pEC50 is on file for COc1cccc(OC)c1-n1c(CCC2CC2)nc(=O)c(C(=O)N2CCC(c3ncc(Cl)cc3F)C2)c1O (single isomer, unassigned) [Example 176] ?
8.00 to 11.00

Could you tell me which pEC50 is on file for `CCCCc1nc(=O)c(C(=O)N2Cc3ccc(F)cc3C2)c(O)n1-c1c(OC)cccc1OC` ?
8.00 to 11.00

Could you tell me which pEC50 is on file for CCCCc1nc(=O)c(C(=O)N2CC[C@@H](c3ccccc3)C2)c(O)n1C(c1ccccc1)C(C)C (stereo partly shown) ?
7.00 to 8.00

Could you tell me which pEC50 is on file for `COc1cccc(OC)c1-n1c(CCC2CC2)nc(=O)c(C(=O)N2CCN(Cc3cccc(F)c3F)CC2)c1O` ?
8.00 to 11.00

Could you tell me which pEC50 is on file for CC[C@@H](c1cc(F)cc(F)c1)n1c(-c2cnn(C)c2)nc(=O)c(C(=O)N2CCC(c3ccccc3F)C2)c1O (single isomer, unassigned) ?
8.00 to 11.00

Could you tell me which pEC50 is on file for CC[C@@H](c1cc(F)cc(F)c1)n1c(-c2cnn(C)c2)nc(=O)c(C(=O)N2CCC(c3ccc(F)cc3)C2)c1O (single isomer, unassigned) ?
8.00 to 11.00

###

system.tested: human APJ receptor (Homo sapiens, UniProt P35414)
Construct: expressed in transfected cells; host or cells: HEK293
Sequence (P35414 1-380): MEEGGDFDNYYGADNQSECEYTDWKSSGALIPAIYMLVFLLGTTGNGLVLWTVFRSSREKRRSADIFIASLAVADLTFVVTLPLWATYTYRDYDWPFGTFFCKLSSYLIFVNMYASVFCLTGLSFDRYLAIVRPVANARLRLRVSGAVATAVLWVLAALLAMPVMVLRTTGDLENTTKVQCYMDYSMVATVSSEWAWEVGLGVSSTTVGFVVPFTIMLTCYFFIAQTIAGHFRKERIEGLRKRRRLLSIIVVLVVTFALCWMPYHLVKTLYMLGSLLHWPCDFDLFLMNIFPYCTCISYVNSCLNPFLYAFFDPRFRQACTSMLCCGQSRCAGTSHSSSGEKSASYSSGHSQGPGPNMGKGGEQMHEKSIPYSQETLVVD
test.summary: Intracellular cAMP Accumulation Assay (APJ hcAMP, HTRF)
Type: cell-based
particulars: human APJ, cAMP accumulation; potency range class; read-out: hAPJ cAMP EC50 Potency range
measure.name: EC50

Answered cases to consult:
{"molecule": "CCCCc1nc(=O)c(C(=O)N2CCN(Cc3cccc(Cl)c3Cl)CC2)c(O)n1-c1c(OC)cccc1OC", "EC50": "0.01 to 10 nM"}
{"molecule": "CCc1cccc(CC)c1-n1c(-c2ccn(C(C)C)n2)nc(=O)c(C(=O)N2CCC(c3ncc(Cl)cc3F)C2)c1O (single isomer, unassigned)", "EC50": "0.01 to 10 nM"}

Lab note: next molecule to report on.
Could you tell me which EC50 is on file for CCn1ccc(-c2nc(=O)c(C(=O)N3CCC(c4ccccc4F)C3)c(O)n2-c2cccc(C(C)C)c2)n1 (single isomer, unassigned) ?
0.01 to 10 nM
